Kd values for the compounds below.
- METHOD DESCRIPTION: Binding affinity to 5'-fluorescein-tagged human mitochondrial ribosome A site mutant duplex RNA incubated for 2 mins by fluorescence spectrophotometry analysis
READOUT KIND: Kd (µM)

INSERT INTO results (structure_string, readout_number) VALUES
  ('NC[C@@H]1O[C@H](O[C@H]2[C@@H](O)[C@H](O[C@@H]3[C@@H](O)[C@H](N)C[C@H](N)[C@H]3O[C@H]3O[C@H](CO)[C@@H](O)[C@H](O)[C@H]3N)O[C@@H]2CO)[C@H](N)[C@@H](O)[C@@H]1O', 2.8),
  ('CCC[C@H]1[C@H](O)[C@@H](N)[C@@H](O[C@H]2[C@H](O[C@@H]3O[C@H](CO)[C@@H](O[C@H]4O[C@@H](CN)[C@@H](O)[C@H](O)[C@H]4N)[C@H]3O)[C@@H](O)[C@H](N)C[C@@H]2N)O[C@@H]1CO', 5.8),
  ('CCO[C@H]1[C@H](O)[C@@H](N)[C@@H](O[C@H]2[C@H](O[C@@H]3O[C@H](CO)[C@@H](O[C@H]4O[C@@H](CN)[C@@H](O)[C@H](O)[C@H]4N)[C@H]3O)[C@@H](O)[C@H](N)C[C@@H]2N)O[C@@H]1CO', 8.6),
  ('NC[C@@H]1O[C@H](O[C@H]2[C@@H](O)[C@H](O[C@@H]3[C@@H](O)[C@H](N)C[C@H](N)[C@H]3O[C@H]3O[C@H](CN)[C@@H](O)[C@H](O)[C@H]3N)O[C@@H]2CO)[C@H](N)[C@@H](O)[C@@H]1O', 0.1);

* * *

Ratio IC50 values for the compounds below.
- METHOD DESCRIPTION: Selectivity ratio of IC50 for anti-ribosomal activity against human-bacterial hybrid ribosome containing human mitochondrial ribosome A site harboring wild type 12s rRNA to IC50 for anti-ribosomal activity against bacterial 70S hybrid ribosomes
READOUT KIND: Ratio IC50

INSERT INTO results (structure_string, readout_number) VALUES
  ('CCC[C@H]1[C@H](O)[C@@H](N)[C@@H](O[C@H]2[C@H](O[C@@H]3O[C@H](CO)[C@@H](O[C@H]4O[C@@H](CN)[C@@H](O)[C@H](O)[C@H]4N)[C@H]3O)[C@@H](O)[C@H](N)C[C@@H]2N)O[C@@H]1CO', 5570),
  ('NC[C@@H]1O[C@H](O[C@H]2[C@@H](O)[C@H](O[C@@H]3[C@@H](O)[C@H](N)C[C@H](N)[C@H]3O[C@H]3O[C@H](CN)[C@@H](O)[C@H](O)[C@H]3N)O[C@@H]2CO)[C@H](N)[C@@H](O)[C@@H]1O', 200),
  ('NC[C@@H]1O[C@H](O[C@H]2[C@@H](O)[C@H](O[C@@H]3[C@@H](O)[C@H](N)C[C@H](N)[C@H]3O[C@H]3O[C@H](CO)[C@@H](O)[C@H](O)[C@H]3N)O[C@@H]2CO)[C@H](N)[C@@H](O)[C@@H]1O', 1700),
  ('CCO[C@H]1[C@H](O)[C@@H](N)[C@@H](O[C@H]2[C@H](O[C@@H]3O[C@H](CO)[C@@H](O[C@H]4O[C@@H](CN)[C@@H](O)[C@H](O)[C@H]4N)[C@H]3O)[C@@H](O)[C@H](N)C[C@@H]2N)O[C@@H]1CO', 1210);

* * *

- METHOD DESCRIPTION: Selectivity ratio of IC50 for anti-ribosomal activity against human-bacterial hybrid ribosome containing human mitochondrial ribosome A site harboring A1555G mutant 12s rRNA to IC50 for anti-ribosomal activity against bacterial 70S hybrid ribosomes
Ratio IC50 values for the molecules below.
READOUT KIND: Ratio IC50

INSERT INTO measurements (molecule, readout_number) VALUES
  ('CCC[C@H]1[C@H](O)[C@@H](N)[C@@H](O[C@H]2[C@H](O[C@@H]3O[C@H](CO)[C@@H](O[C@H]4O[C@@H](CN)[C@@H](O)[C@H](O)[C@H]4N)[C@H]3O)[C@@H](O)[C@H](N)C[C@@H]2N)O[C@@H]1CO', 1730),
  ('NC[C@@H]1O[C@H](O[C@H]2[C@@H](O)[C@H](O[C@@H]3[C@@H](O)[C@H](N)C[C@H](N)[C@H]3O[C@H]3O[C@H](CN)[C@@H](O)[C@H](O)[C@H]3N)O[C@@H]2CO)[C@H](N)[C@@H](O)[C@@H]1O [FRAMYCETIN]', 20),
  ('NC[C@@H]1O[C@H](O[C@H]2[C@@H](O)[C@H](O[C@@H]3[C@@H](O)[C@H](N)C[C@H](N)[C@H]3O[C@H]3O[C@H](CO)[C@@H](O)[C@H](O)[C@H]3N)O[C@@H]2CO)[C@H](N)[C@@H](O)[C@@H]1O [PAROMOMYCIN]', 200),
  ('CCO[C@H]1[C@H](O)[C@@H](N)[C@@H](O[C@H]2[C@H](O[C@@H]3O[C@H](CO)[C@@H](O[C@H]4O[C@@H](CN)[C@@H](O)[C@H](O)[C@H]4N)[C@H]3O)[C@@H](O)[C@H](N)C[C@@H]2N)O[C@@H]1CO', 1500);

* * *

pKd values for the molecules below.
- METHOD DESCRIPTION: Binding affinity to 5'-fluorescein-tagged human mitochondrial ribosomal A site wt-duplex RNA incubated for 2 mins by fluorescence spectrophotometric analysis
pKd: −log10 of the molar value.
READOUT KIND: pKd

INSERT INTO results (molecule, readout_number) VALUES
  ('CCO[C@H]1[C@H](O)[C@@H](N)[C@@H](O[C@H]2[C@H](O[C@@H]3O[C@H](CO)[C@@H](O[C@H]4O[C@@H](CN)[C@@H](O)[C@H](O)[C@H]4N)[C@H]3O)[C@@H](O)[C@H](N)C[C@@H]2N)O[C@@H]1CO', 4.89),
  ('NC[C@@H]1O[C@H](O[C@H]2[C@@H](O)[C@H](O[C@@H]3[C@@H](O)[C@H](N)C[C@H](N)[C@H]3O[C@H]3O[C@H](CO)[C@@H](O)[C@H](O)[C@H]3N)O[C@@H]2CO)[C@H](N)[C@@H](O)[C@@H]1O [PAROMOMYCIN]', 5.19),
  ('NC[C@@H]1O[C@H](O[C@H]2[C@@H](O)[C@H](O[C@@H]3[C@@H](O)[C@H](N)C[C@H](N)[C@H]3O[C@H]3O[C@H](CN)[C@@H](O)[C@H](O)[C@H]3N)O[C@@H]2CO)[C@H](N)[C@@H](O)[C@@H]1O [FRAMYCETIN]', 5.96),
  ('CCC[C@H]1[C@H](O)[C@@H](N)[C@@H](O[C@H]2[C@H](O[C@@H]3O[C@H](CO)[C@@H](O[C@H]4O[C@@H](CN)[C@@H](O)[C@H](O)[C@H]4N)[C@H]3O)[C@@H](O)[C@H](N)C[C@@H]2N)O[C@@H]1CO', 4.57);

* * *

- System: human mitochondrial ribosomal A site (wild type) RNA
- METHOD DESCRIPTION: Selectivity ratio of Kd for 5'-fluorescein-tagged human mitochondrial ribosomal A site wt-duplex RNA to Kd for 5'-fluorescein-tagged Escherichia coli ribosomal A site wt-bac duplex RNA
- Type: toxicity
selectivity ratio values for the molecules below.
READOUT KIND: selectivity ratio

INSERT INTO results (structure_string, readout_number) VALUES
  ('NC[C@@H]1O[C@H](O[C@H]2[C@@H](O)[C@H](O[C@@H]3[C@@H](O)[C@H](N)C[C@H](N)[C@H]3O[C@H]3O[C@H](CN)[C@@H](O)[C@H](O)[C@H]3N)O[C@@H]2CO)[C@H](N)[C@@H](O)[C@@H]1O', 1100),
  ('CCO[C@H]1[C@H](O)[C@@H](N)[C@@H](O[C@H]2[C@H](O[C@@H]3O[C@H](CO)[C@@H](O[C@H]4O[C@@H](CN)[C@@H](O)[C@H](O)[C@H]4N)[C@H]3O)[C@@H](O)[C@H](N)C[C@@H]2N)O[C@@H]1CO', 427),
  ('NC[C@@H]1O[C@H](O[C@H]2[C@@H](O)[C@H](O[C@@H]3[C@@H](O)[C@H](N)C[C@H](N)[C@H]3O[C@H]3O[C@H](CO)[C@@H](O)[C@H](O)[C@H]3N)O[C@@H]2CO)[C@H](N)[C@@H](O)[C@@H]1O', 1300),
  ('CCC[C@H]1[C@H](O)[C@@H](N)[C@@H](O[C@H]2[C@H](O[C@@H]3O[C@H](CO)[C@@H](O[C@H]4O[C@@H](CN)[C@@H](O)[C@H](O)[C@H]4N)[C@H]3O)[C@@H](O)[C@H](N)C[C@@H]2N)O[C@@H]1CO', 13400);

* * *

selectivity ratio values for the compounds below.
- Test system: human mitochondrial ribosome A site (mutant) RNA
- METHOD DESCRIPTION: Selectivity ratio of Kd for 5'-fluorescein-tagged human mitochondrial ribosome A site mutant duplex RNA to Kd for 5'-fluorescein-tagged Escherichia coli ribosomal A site wt-bac duplex RNA
- Assay type: toxicity
READOUT KIND: selectivity ratio

INSERT INTO results (structure_string, readout_kind, readout_number) VALUES
  ('CCO[C@H]1[C@H](O)[C@@H](N)[C@@H](O[C@H]2[C@H](O[C@@H]3O[C@H](CO)[C@@H](O[C@H]4O[C@@H](CN)[C@@H](O)[C@H](O)[C@H]4N)[C@H]3O)[C@@H](O)[C@H](N)C[C@@H]2N)O[C@@H]1CO', 'selectivity ratio', 287),
  ('NC[C@@H]1O[C@H](O[C@H]2[C@@H](O)[C@H](O[C@@H]3[C@@H](O)[C@H](N)C[C@H](N)[C@H]3O[C@H]3O[C@H](CO)[C@@H](O)[C@H](O)[C@H]3N)O[C@@H]2CO)[C@H](N)[C@@H](O)[C@@H]1O', 'selectivity ratio', 560),
  ('CCC[C@H]1[C@H](O)[C@@H](N)[C@@H](O[C@H]2[C@H](O[C@@H]3O[C@H](CO)[C@@H](O[C@H]4O[C@@H](CN)[C@@H](O)[C@H](O)[C@H]4N)[C@H]3O)[C@@H](O)[C@H](N)C[C@@H]2N)O[C@@H]1CO', 'selectivity ratio', 2900),
  ('NC[C@@H]1O[C@H](O[C@H]2[C@@H](O)[C@H](O[C@@H]3[C@@H](O)[C@H](N)C[C@H](N)[C@H]3O[C@H]3O[C@H](CN)[C@@H](O)[C@H](O)[C@H]3N)O[C@@H]2CO)[C@H](N)[C@@H](O)[C@@H]1O', 'selectivity ratio', 100);
